# TEST_NAME: Bidirectional transport study in LLC-PK1 cells
# Type: in vitro ADME
# MEASUREMENT_SETUP: pig
REPORTED_ENDPOINT: Papp at 1 h

Per the records, this molecule ( OC[C@@H](O)[C@@H](O)[C@H](O)[C@H](O)CO ) has Papp at 1 h equal to ~1.3 ×10⁻⁶ cm/s
